The reported measurements were obtained from patent US10363250B2.

Biological target: human FRs (KB cells) (Homo sapiens)
Construct: endogenous in cells; host or cells: KB cells
Sequence (P15328 25-234): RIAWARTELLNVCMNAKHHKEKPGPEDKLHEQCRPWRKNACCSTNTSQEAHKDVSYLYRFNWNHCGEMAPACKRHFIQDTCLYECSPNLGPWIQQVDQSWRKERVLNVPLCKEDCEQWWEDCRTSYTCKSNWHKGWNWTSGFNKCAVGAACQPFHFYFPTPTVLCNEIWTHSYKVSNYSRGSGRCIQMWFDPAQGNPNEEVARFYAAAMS
Test: Cell-Based Relative Affinity Assay (competition with 3H-FA on adherent KB cells)
Type: binding
Conditions: Table 2; 37° C., 10% serum
reported endpoint: Fold Weaker Affinity form FA
Note: the reply should be a number with no unit written.

In: Please report Fold Weaker Affinity form FA with human FRs (KB cells) (Homo sapiens) for item Nc1nc2ncc(CNc3ccc(C(=O)N[C@@H](CCC(=O)NC[C@H](N)C(=O)N[C@@H](CC(=O)O)C(=O)N[C@@H](CS)C(=O)O)C(=O)O)cc3)nc2c(=O)[nH]1 [EC20, Pte-γGlūβDpr-Asp-Cys] .
Out: 1.1

In: Please report Fold Weaker Affinity form FA with human FRs (KB cells) (Homo sapiens) for item Nc1nc2ncc(CNc3ccc(C(=O)N[C@@H](CCC(=O)NCCNC(=S)Nc4ccc(-c5c6ccc(=O)cc-6oc6cc(O)ccc56)c(C(=O)O)c4)C(=O)O)cc3)nc2c(=O)[nH]1 [EC17, Pte-γGlu-eda-FITC] .
Out: 1.2

In: Please report Fold Weaker Affinity form FA with human FRs (KB cells) (Homo sapiens) for item CO[C@@]12[C@H](COC(N)=O)C3=C(C(=O)C(C)=C(NCCSSC[C@H](NC(=O)CC[C@@H](NC(=O)c4ccc(NCc5cnc6nc(N)[nH]c(=O)c6n5)cc4)C(=O)O)C(=O)O)C3=O)N1C[C@@H]1N[C@@H]12 [EC72, Pte-γGlu-Cys-L-MMC] .
Out: 1.5

In: Please report Fold Weaker Affinity form FA with human FRs (KB cells) (Homo sapiens) for item CC[C@]1(O)CC2CN(CCc3c([nH]c4ccccc34)[C@@](C(=O)OC)(c3cc4c(cc3OC)N(C)[C@H]3[C@@](O)(C(=O)N/N=C(\C)c5ccc(N6C(=O)CC(SC[C@H](NC(=O)[C@H](CC(=O)O)NC(=O)[C@H](CC(=O)O)NC(=O)[C@H](CCCNC(=N)N)NC(=O)[C@H](CC(=O)O)NC(=O)CC[C@H](NC(=O)c7ccc(NCc8cnc9nc(N)[nH]c(=O)c9n8)cc7)C(=O)O)C(=O)O)C6=O)cc5)[C@H](O)[C@]5(CC)C=CCN6CC[C@]43[C@@H]65)C2)C1 (some centres unmarked) [EC140, EC119-Hyd-DAVLBH] .
Out: 2.0

In: Please report Fold Weaker Affinity form FA with human FRs (KB cells) (Homo sapiens) for item CC[C@]1(O)CC2CN(CCc3c([nH]c4ccccc34)[C@@](C(=O)OC)(c3cc4c(cc3OC)N(C)[C@H]3[C@@](O)(C(=O)NNC(=O)OCCSSC[C@H](NC(=O)c5ccc(NCc6cnc7nc(N)[nH]c(=O)c7n6)cc5)C(=O)O)[C@H](O)[C@]5(CC)C=CCN6CC[C@]43[C@@H]65)C2)C1 (stereo partly drawn) [EC216, Pte-Cys-L-DAVLBH] .
Out: 22
